assay: yeast display, Sf9 membrane polyspecificity reagent, FACS + sequencing; frameworks hold sequencing errors
Measured metric: polyreactivity (PSR sort gate)

Example results:
polymer_sequence=QVQLVESGGGLVQAGGSLRLSCAASGCIFSDSTMGWYRQAPGKERELVAAISGIGGSTYYADSVKGRFTISRDNAKNTVYLQMNSLKPEDTAVYYCAADDYYYPYVSHDYWGQGTQVTVSS measurement="low polyreactivity"
polymer_sequence=QVQLVESGGGLVQAGGSLRLSCASSGYIFEKYAMGWYRQAPGKERELVAAITVTGASTYYADSVKGRFTISRDNAKNTVYLQMNSMNPEDTAVYYCAAKTLSVGYVDPDYGRDYWGQGTQVTVSS measurement="low polyreactivity"
polymer_sequence=QFQLVESGGGLVQAGGSLRLSCAASGSTFVFYAMGWYRQAPGKQRELVATISTGGSTYADSVKGRFTISRDNAKNTVYLQMNSLKPEDTAVYYCAADSLFGHYDYSGQGTQVTVSS measurement="low polyreactivity"
polymer_sequence=QVQLVESGGGLVQAGGSLRLSCAASGRTLTGNAMGWYRQAPGKERELVAVISYSGTNTRYADSVKGRFTISRDNAKNTVYLQMNSLKPEDTAVYYCAARRPAPNYSSRYDYWGQGTQVTVSS measurement="high polyreactivity"
polymer_sequence=QVQLVESGGGLVQAGGSLRLSCAASGRIFVTYGMGWYRQAPGKERELVAAINWRGGSTYYADSVKGRFTISRDNAKNTVYLQMNSLKPEDTAVYYCNARLYRNRLGYWGQGTQVTVSS measurement="high polyreactivity"

Return polyreactivity (PSR sort gate) (reported value) for this sequence: `QVQLVESGGGLVQAGGSLRLSCAASGITFYRYVMGWYRQAPGKERELVAAITSRGGSTSYADSVKGRFTISRDNAKNTVYLQMNSLKPEDTAVYYCAAVYRRDYDYWGQGTQVTVSS` high polyreactivity

Return polyreactivity (PSR sort gate) (reported value) for this sequence: `QVQLVESGGGLVQAGGSLRLSCAASGYIFVRNAMGWSRQAPGKERELVAAISRTDGTTYYADSVKGRFTISRDNAKNTVYLQMNSLIPEDTAVYYCAADYLRAPYYQYEYWGQGTQVTVSS` low polyreactivity

----------
test: yeast display, Sf9 membrane polyspecificity reagent, FACS + sequencing; frameworks hold sequencing errors
Measured metric: polyreactivity (PSR sort gate)

polymer_sequence=QVQLVESGGGLVKAGGSLRLSCAASGFTFWRNTMGWYRQAPGKERELVAAIDRSGSSTYYADSVKGRFTISRDNATNNVYFQMNSLKPEDTAVYYCAADHTYFTAYGDYWGQGTQVTVSS measured_metric="polyreactivity (PSR sort gate)" measurement="low polyreactivity"
polymer_sequence=QVQLVESGGGLVQAGGSLRLSCAASGSTWYYAMGWYRQAPGKERELVATISSGSRTYYADSVKGRFTISRDNAKNTVYLQMNSLKPEDTAVYYCAARESYAELNYWGQGTQVTVSS measured_metric="polyreactivity (PSR sort gate)" measurement="high polyreactivity"
polymer_sequence=QVQLVETGGGLVQAGGSLRLSCAASGSTFSRNAMGWYRQAPGKEREFVAAISWSGSSTYYADSVKGRFTISRDNEKNTVYLQMNSLKPEDTAVYYCAARETWYPYYWMGYWGQGAQVTVSS measured_metric="polyreactivity (PSR sort gate)" measurement="high polyreactivity"
polymer_sequence=QVQLVESGGGIVQAGGSLRLSCAASGSIFDSNAMGWYRQAPGKERELVAAITGSGTSTYYADSVKGRFTISRDNAKNTVYLQMNSLKPEDTAVYYCAAAPEYLTDHDYWGQGTQVTVSS measured_metric="polyreactivity (PSR sort gate)" measurement="low polyreactivity"
polymer_sequence=QVQLVESGGGLVQAGGSLRLSCAASGGTSYAYTMGWYRQAPGKERELVAAISGSTGSTYYADSVKGRFTISRDNAKNTVYLQMNSLKPEDTAVYYCNADISSLYSLSWFRYWYDYWGQGTQVTVSS measured_metric="polyreactivity (PSR sort gate)" measurement="low polyreactivity"

Return polyreactivity (PSR sort gate) (reported value) for this sequence: `QVQLVESGGGLVQAGGSLRLSCAASGRTFPIYAMGWYRQAPGKERELVAAITRGGRTNYADSVKGRFTISRDNAKNTVYLQMNSLKTEDTAVYYCAARSYGTYLYAEYDYWGQGTQVTVSS` high polyreactivity

Return polyreactivity (PSR sort gate) (reported value) for this sequence: `QVQLVESGGGLVQAGGSLRLSCAASGITFKGNAMGWYRQAPGKERELVAVITWSGGSTYYADSVKGRFTISRDNAKNTVYLQMNSLKPEDTAVYYCAKPWIYGDSQYDYWGQGTQVTVSS` low polyreactivity

Cited source for all entries: the nanobody polyreactivity screen of Harvey et al. (2022)
